Attribution: ChEMBL document CHEMBL1154715

# System: SF-268
# Protocol description: Cytotoxicity against human SF268 cells at 4 ug/ml after 48 hrs by SRB assay
# Assay type: functional
// reported Activity for each item listed
Endpoint: Activity

1. COc1cccc(Nc2c3ccccc3nc3oc4ccccc4c23)c1 :: 97%
2. Nc1c2ccccc2nc2oc3ccccc3c12 :: 84%
3. c1ccc(Oc2c3ccccc3nc3oc4ccccc4c23)cc1 :: 108%
4. COc1c2ccccc2nc2oc3ccccc3c12 :: 98%
5. CC(=O)c1ccc(Nc2c3ccccc3nc3oc4ccccc4c23)cc1 :: 109%
6. CCOc1c2ccccc2nc2oc3ccccc3c12 :: 86%
7. CN(C)c1c2ccccc2nc2oc3ccccc3c12 :: 102%

###

// reported Activity for each item listed
# Tested on: SF-268
# Protocol description: Cytotoxicity against human SF268 cells at 4 ug/ml after 48 hrs by SRB assay
# Assay type: functional
Endpoint: Activity (%)

1. CNc1c2ccccc2nc2oc3ccccc3c12 :: 98
2. COc1ccc(Nc2c3ccccc3nc3oc4ccccc4c23)cc1 :: 111
3. CC(=O)c1ccc(Oc2c3ccccc3nc3oc4ccccc4c23)cc1 :: 104
4. c1ccc(Nc2c3ccccc3nc3oc4ccccc4c23)cc1 :: 118

###

// reported Activity for each item listed
# Test system: MCF7
# Protocol description: Cytotoxicity against human MCF7 cells at 20 ug/ml after 48 hrs by SRB assay
# Type: functional
Endpoint: Activity (%)

1. c1ccc(Nc2c3ccccc3nc3oc4ccccc4c23)cc1 :: 44
2. CCOc1c2ccccc2nc2oc3ccccc3c12 :: 77
3. COc1ccc(Nc2c3ccccc3nc3oc4ccccc4c23)cc1 :: 35
4. CNc1c2ccccc2nc2oc3ccccc3c12 :: 99
5. COc1c2ccccc2nc2oc3ccccc3c12 :: 92
6. CN(C)c1c2ccccc2nc2oc3ccccc3c12 :: 48
7. COc1cccc(Nc2c3ccccc3nc3oc4ccccc4c23)c1 :: 84
8. c1ccc(Oc2c3ccccc3nc3oc4ccccc4c23)cc1 :: 64
9. Nc1c2ccccc2nc2oc3ccccc3c12 :: 113
10. CC(=O)c1ccc(Nc2c3ccccc3nc3oc4ccccc4c23)cc1 :: 49
11. CC(=O)c1ccc(Oc2c3ccccc3nc3oc4ccccc4c23)cc1 :: 88

###

# Tested on: Vero
# Protocol description: Cytotoxicity against african green monkey Vero cells after 72 hrs by MTT assay
# Type: cell-based, Chlorocebus sabaeus
// reported IC50 for each item listed
Endpoint: IC50 (µg/mL)

1) CNc1c2ccccc2nc2oc3ccccc3c12 :: 5.55
2) COc1c2ccccc2nc2oc3ccccc3c12 :: 11.77
3) CO[C@H]1/C=C/O[C@@]2(C)Oc3c(C)c(O)c4c(O)c(c(/C=N/N5CCN(C)CC5)c(O)c4c3C2=O)NC(=O)/C(C)=C\C=C\[C@H](C)[C@H](O)[C@@H](C)[C@@H](O)[C@@H](C)[C@H](OC(C)=O)[C@@H]1C :: 100
4) c1ccc(Nc2c3ccccc3nc3oc4ccccc4c23)cc1 :: 6.14
5) CCOc1c2ccccc2nc2oc3ccccc3c12 :: 10.34
6) COc1ccc(Nc2c3ccccc3nc3oc4ccccc4c23)cc1 :: 3.63

###

# Test system: MCF7
# Protocol description: Cytotoxicity against human MCF7 cells at 4 ug/ml after 48 hrs by SRB assay
# Format: functional
Endpoint: Activity (%)

1) CN(C)c1c2ccccc2nc2oc3ccccc3c12 :: 87
2) c1ccc(Oc2c3ccccc3nc3oc4ccccc4c23)cc1 :: 94
3) CCOc1c2ccccc2nc2oc3ccccc3c12 :: 99
4) Nc1c2ccccc2nc2oc3ccccc3c12 :: 114
5) CNc1c2ccccc2nc2oc3ccccc3c12 :: 100
6) COc1cccc(Nc2c3ccccc3nc3oc4ccccc4c23)c1 :: 107
7) COc1ccc(Nc2c3ccccc3nc3oc4ccccc4c23)cc1 :: 109
8) CC(=O)c1ccc(Nc2c3ccccc3nc3oc4ccccc4c23)cc1 :: 106
9) c1ccc(Nc2c3ccccc3nc3oc4ccccc4c23)cc1 :: 118
10) COc1c2ccccc2nc2oc3ccccc3c12 :: 102
11) CC(=O)c1ccc(Oc2c3ccccc3nc3oc4ccccc4c23)cc1 :: 100
